Reference source: ChEMBL document CHEMBL1140018

- measurement-target: Inhibitor of nuclear factor kappa-B kinase subunit beta (Homo sapiens, UniProt O14920)
- Sequence (O14920 whole entry): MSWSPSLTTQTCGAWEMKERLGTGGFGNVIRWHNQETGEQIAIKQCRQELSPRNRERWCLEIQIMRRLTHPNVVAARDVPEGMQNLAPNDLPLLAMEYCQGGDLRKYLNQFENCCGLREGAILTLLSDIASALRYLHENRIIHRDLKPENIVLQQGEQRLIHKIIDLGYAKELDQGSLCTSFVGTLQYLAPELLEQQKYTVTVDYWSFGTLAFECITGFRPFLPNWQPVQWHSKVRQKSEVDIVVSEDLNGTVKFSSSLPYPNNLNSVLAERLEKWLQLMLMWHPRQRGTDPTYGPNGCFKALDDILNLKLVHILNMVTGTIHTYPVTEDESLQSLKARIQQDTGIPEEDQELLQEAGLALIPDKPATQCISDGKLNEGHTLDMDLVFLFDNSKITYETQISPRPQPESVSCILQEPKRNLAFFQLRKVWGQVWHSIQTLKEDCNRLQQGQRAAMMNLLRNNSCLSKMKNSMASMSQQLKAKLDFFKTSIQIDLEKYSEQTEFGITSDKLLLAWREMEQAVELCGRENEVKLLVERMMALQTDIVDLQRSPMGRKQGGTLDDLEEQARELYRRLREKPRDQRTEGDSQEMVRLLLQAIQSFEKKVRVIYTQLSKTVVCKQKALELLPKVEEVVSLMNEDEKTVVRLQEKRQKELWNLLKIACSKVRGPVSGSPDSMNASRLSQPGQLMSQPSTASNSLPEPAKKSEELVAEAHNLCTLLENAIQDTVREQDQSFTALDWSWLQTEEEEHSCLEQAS
observed-property: IC50 (nM)

The examples below pair each entry with its known result.
Tell me its IC50 given COc1ccccc1-c1cc2nc(NCCN)c3ncc(C)n3c2s1 as the entry.
280

Tell me its IC50 given CNc1nc2cc(-c3cccc(CN)c3)sc2n2c(C)cnc12 as the entry.
8.5

Tell me its IC50 given Cc1cnc2c(NCCN)nc3cc(-c4ccncc4)sc3n12 as the entry.
270

Tell me its IC50 given Cc1cnc2c(N)nc3cc(-c4ccccc4)sc3n12 as the entry.
370

Tell me its IC50 given CNc1nc2cc(-c3cccc(CNC(N)=O)c3)sc2n2c(C)cnc12 as the entry.
43

Tell me its IC50 given Cc1cnc2c(NCCNC=O)nc3cc(-c4ccccc4)sc3n12 as the entry.
230

[P] CNc1nc2cc(-c3cccc(C(N)=O)c3)sc2n2c(C)cnc12
[Q] COc1cccc(-c2cc3nc(NCCN)c4ncc(C)n4c3s2)c1
[R] CNc1nc2cc(-c3cccc(CCNS(N)(=O)=O)c3)sc2n2c(C)cnc12
[S] CNc1nc2cc(-c3cccc(CNS(N)(=O)=O)c3)sc2n2c(C)cnc12
[T] Cc1cnc2c(NCCN)nc3cc(-c4cccnc4)sc3n12
Please rank these molecules by IC50 in descending order. Give me the labels in the order the question wants.
P, T, Q, R, S
(P: 290 nM, T: 140 nM, Q: 44 nM, R: 7 nM, S: 3 nM)

====

- Test system: Liver microsomes
- procedure-details: Metabolic stability in human liver microsomes
- Format: ADME, Microsome
observed-property: Stability (nmol/mg/min)

The examples below pair each entry with its known result.
Tell me its Stability given CNc1nc2cc(-c3cccc(CC(N)=O)c3)sc2n2c(C)cnc12 as the entry.
0.062

Tell me its Stability given CCNC(=O)C(N)Cc1cccc(-c2cc3nc(NC)c4ncc(C)n4c3s2)c1 (racemic) as the entry.
0.069

[a] CNc1nc2cc(-c3cccc(CNC(N)=O)c3)sc2n2c(C)cnc12
[b] CNc1nc2cc(-c3cccc(CCNCC(N)=O)c3)sc2n2c(C)cnc12
[c] CNc1nc2cc(-c3cccc(CNS(N)(=O)=O)c3)sc2n2c(C)cnc12
Arrange these 3 compounds in increasing order of Stability. Give me the labels in the order the question wants.
b, c, a

====

- procedure-details: Cytotoxicity against Jurkat cells by Alamar blue assay
- details: human, Jurkat cells
observed-property: CC50 (µM)
Numbers only here, please. The scale is µM.

Tell me its CC50 given Cc1cnc2c(NCCN)nc3cc(-c4ccc[nH]4)sc3n12 as the entry.
7.9

Tell me its CC50 given CNC(=O)C(N)Cc1cccc(-c2cc3nc(NC)c4ncc(C)n4c3s2)c1 (racemic) as the entry.
68

Next:
Tell me its CC50 given Cc1cnc2c(NCCN)nc3cc(-c4ccccc4)sc3n12 as the entry.
77

Tell me its CC50 given Cc1cnc2c(NCCN)nc3cc(-c4nccs4)sc3n12 as the entry.
5.9

Tell me its CC50 given CNC(=O)CNCCc1cccc(-c2cc3nc(NC)c4ncc(C)n4c3s2)c1 as the entry.
50

====

- procedure-details: Cytotoxicity against Jurkat cells by Alamar blue assay
- details: human, Jurkat cells
observed-property: CC50

The examples below pair each entry with its known result.
Tell me its CC50 given CNc1nc2cc(-c3cccc(C[C@H](N)C(N)=O)c3)sc2n2c(C)cnc12 as the entry.
> 100 µM

Tell me its CC50 given CNc1nc2cc(-c3cccc(C(=O)O)c3)sc2n2c(C)cnc12 as the entry.
> 100 µM

Tell me its CC50 given CNc1nc2cc(-c3cccc(CCNCC(N)=O)c3)sc2n2c(C)cnc12 as the entry.
> 100 µM

Tell me its CC50 given CNc1nc2cc(-c3cccc(CCNC(C)=O)c3)sc2n2c(C)cnc12 as the entry.
> 100 µM

Tell me its CC50 given Cc1cnc2c(NCCN)nc3cc(-c4ccoc4)sc3n12 as the entry.
> 100 µM

Next:
Tell me its CC50 given Cc1cnc2c(N)nc3cc(-c4ccccc4)sc3n12 as the entry.
> 100 µM

Tell me its CC50 given CNc1nc2cc(-c3cccc(CNC(N)=O)c3)sc2n2c(C)cnc12 as the entry.
> 100 µM

Tell me its CC50 given CNc1nc2ccsc2n2c(C)cnc12 as the entry.
> 100 µM

Tell me its CC50 given Cc1cnc2c(NCCN)nc3cc(-c4cn[nH]c4)sc3n12 as the entry.
46 µM

Tell me its CC50 given CNc1nc2cc(-c3cccc(CC(N)C(=O)O)c3)sc2n2c(C)cnc12 (stereo not given) as the entry.
> 100 µM
